Tested on: HIV strain containing the Y181C mutation
Assay: Spread assay: inhibition of acute HIV-1 infection of T-lymphoid cells (Y181C)
Format: cell-based
Conditions: Human immunodeficiency virus 1, T-lymphoid, read-out: Spread (Y181C) CIC95 (10% FBS)
Each record gets a class by IC95: lower band = under 10 nM, central band = from 10 nM up to 50 nM, upper band = 50 nM and over

Please review the following examples before continuing.
- molecule: "N#Cc1cc(Cl)cc(Oc2c(Cl)ccn(Cc3n[nH]c4ncccc34)c2=O)c1"
  category: "lower band"
- molecule: "N#Cc1cc(Cl)cc(Oc2c(F)c(NCc3n[nH]c4ncccc34)nc(F)c2Cl)c1"
  category: "central band"
- molecule: "N#Cc1cc(C#N)cc(Oc2c(C(F)(F)F)ccn(Cc3n[nH]c4ncccc34)c2=O)c1"
  category: "lower band"
- molecule: "N#Cc1cc(Cl)cc(Oc2cc(CCc3n[nH]c4ncccc34)[nH]c(=O)c2Cl)c1"
  category: "central band"
- molecule: "N#Cc1cc(Cl)cc(Oc2nc(NCc3n[nH]c4ncccc34)c(Cl)cc2F)c1"
  category: "central band"

Request: Each molecule maps to one class by IC95. Which class for N#Cc1cc(Cl)cc(Oc2nc(NCc3n[nH]c4nc(N)ccc34)c(Cl)cc2F)c1 ?
Response: central band

Request: Determine which band this molecule sits in: Cl.Nc1ccc2c(Cn3ccc(C(F)(F)F)c(Oc4cc(Cl)cc(Cl)c4)c3=O)n[nH]c2n1
Response: upper band

====

Recorded IC50, one value per entry.
Molecular target: HIV-1 RT enzyme (wild-type) (Human immunodeficiency virus type 1 group M subtype B, UniProt P04585)
Test: ECL assay for inhibition of HIV reverse transcriptase (WT)
Type: biochemical
Structures can show the parent of a compound that is named as a salt.
Response body: numeric value in nM, unit text excluded.

The examples below pair each entry with its known result.
- compound: "N#Cc1cc(Cl)cc(Oc2cc(C(O)c3n[nH]c4ncccc34)[nH]c(=O)c2Cl)c1 (stereo not shown)"
  IC50, nM: 3.2
- compound: "Cl.Nc1ccc2c(Cn3ccc(C(F)(F)F)c(Oc4cc(Cl)cc(Cl)c4)c3=O)n[nH]c2n1"
  IC50, nM: 1.6
- compound: "N#Cc1cc(Cl)cc(Oc2c(C(F)(F)F)ccn(Cc3n[nH]c4nc(N)ccc34)c2=O)c1 [Compound 17-2, trifluoroacetate]"
  IC50, nM: 1.9

Request: GET /values?readout=IC50&item= N#Cc1cc(Cl)cc(Oc2c(Cl)ccn(Cc3n[nH]c4nc(N)ccc34)c2=O)c1.O=C(O)C(F)(F)F [Compound 22, trifluoroacetate]
Response: 1.3

====

Target: HIV reverse transcriptase with the K103N mutation (Human immunodeficiency virus type 1 group M subtype B, UniProt P04585, K690N)
Construct: made in house
Assay: ECL assay for inhibition of mutant HIV reverse transcriptase (K103N)
Assay type: biochemical, HIV-1
Conditions: K103N mutant RT; read-out: ECL Assay (K103N) IC50
property-name: IC50 (nM)
Numeric only. Scale: nM

// worked examples, IC50 included
- compound: "CN(Cc1ccccc1Cl)C(=O)Cn1ccc(C(F)(F)F)c(Oc2cc(Cl)cc(C#N)c2)c1=O [Compound 14]"
  IC50 / nM: 440
- compound: "N#Cc1cc(Cl)cc(Oc2cc(Cc3n[nH]c4ncccc34)[nH]c(=O)c2Cl)c1 [Compound 24-7]"
  IC50 / nM: 1.7
- compound: "Cc1ccn(CCc2n[nH]c3ncccc23)c(=O)c1Oc1cc(Cl)cc(C#N)c1 [Compound 12-7]"
  IC50 / nM: 58
- compound: "Cc1nc(OCc2n[nH]c3ncccc23)c(Cl)c(Oc2cc(Cl)cc(C#N)c2)c1Cl [Compound 7-1]"
  IC50 / nM: 27
- compound: "N#Cc1cc(Cl)cc(Oc2c(Cl)c(CCc3n[nH]c4ncccc34)[nH]c(=O)c2Cl)c1 [Compound 5-6]"
  IC50 / nM: 1.8
- compound: "N#Cc1cc(Cl)cc(Oc2c(C(F)(F)F)ccn(Cc3n[nH]c4ncccc34)c2=O)c1 [Compound 13-2]"
  IC50 / nM: 2.6
- compound: "N#Cc1cc(C#N)cc(Oc2c(C(F)(F)F)ccn(Cc3n[nH]c4ncccc34)c2=O)c1 [Compound 18-4]"
  IC50 / nM: 5.1
- compound: "N#Cc1cc(Cl)cc(Oc2c(F)c(NCc3n[nH]c4ncccc34)nc(F)c2Cl)c1 [Compound 10-4]"
  IC50 / nM: 3.2

Request: Request the reported IC50 associated with N#Cc1cc(Cl)cc(Oc2cc(CCc3n[nH]c4ncccc34)[nH]c(=O)c2Cl)c1 [Compound 3-8]
Response: 4.7

Request: What value of IC50 has been recorded for this entry: N#Cc1cc(Cl)cc(Oc2cc(CCc3n[nH]c4nc(N)ccc34)[nH]c(=O)c2Cl)c1 [Compound 4-4]
Response: 14

Request: Recorded IC50 for N#Cc1cc(Cl)cc(Oc2c(Cl)c(Cl)cn(Cc3n[nH]c4ncccc34)c2=O)c1 [Compound 23-2] , please?
Response: 1.6

Request: Query: IC50; subject: N#Cc1cc(Cl)cc(Oc2c(Cl)ccn(Cc3n[nH]c4ncccc34)c2=O)c1 [Compound 21-8]
Response: 1.4

Request: Which measured IC50 value corresponds to N#Cc1cc(Cl)cc(Oc2cc(NCc3n[nH]c4ncccc34)[nH]c(=O)c2Cl)c1 [Compound 8-5] ?
Response: 11

Entry source: patent US8404856B2
